# System: HepG2 cells
# MEASUREMENT DESCRIPTION: HepG2 cytotoxicity assay
# STUDY CONDITIONS: read-out: HepG2 cytotoxicity assay IC50; dose response confirmation
Please go through the items and note down their log10(IC50).
The figures below represent log10 of IC50, where IC50 is stated in µM.

Some entries whose results are on file:
Cc1[nH]c(C)c(-c2ccc(C#Cc3ccc(F)cc3F)cc2)c(=O)c1Br: 2.00
COc1ccc2ncc(F)c(CCN3CCC(NCc4cc(C)c5c(c4)OCCO5)CC3)c2n1.Cl: 1.33
C=C[C@H]1CN(CCCCCCC)CC[C@H]1CC(=O)Nc1cnnc2ccc(OC)cc12.O=C(O)C(=O)O: 1.53
Oc1c(C(Nc2nc3ccccc3s2)c2ccccc2)ccc2cccnc12 (centres unmarked): 0.37
Cc1ccc2c(=O)c3cc(C)ccc3[nH]c2c1: 1.80
COCCN(C)c1ccc(C(=O)Nc2ccccc2)cc1NS(=O)(=O)Cc1ccccc1.O=C(O)C(F)(F)F: 2.00

For every record below, what is its log10(IC50)?
1. CCOC(=O)[C@H](Cc1cc([N+](=O)[O-])c(Oc2ccc(OC)c(Cc3ccc(OC)c(C(C)C)c3)c2)c([N+](=O)[O-])c1)NC(=O)C(F)(F)F
2. C[C@@H]1C[C@@H]([C@H](O)CC2CC(=O)NC(=O)C2)C(=O)[C@@H](C)C1

2.00
2.00

====

# System: HepG2 cells
# MEASUREMENT DESCRIPTION: HepG2 cytotoxicity assay
# STUDY CONDITIONS: read-out: HepG2 cytotoxicity assay IC50; dose response confirmation
Provide the reported pIC50 of each item.
One number for each entry, as −log10 of the molar value.

Sample answers from the record:
Cc1[nH]c(C)c(-c2ccc(-c3ccc(Cl)cc3)cc2)c(=O)c1Cl: 4.24
O=c1c(Br)ccccc1Br: 4.83
Cc1[nH]c(C)c(-c2ccc(-c3ccccc3Cl)nc2)c(=O)c1Cl: 4.00
CC(Cl)=CCc1c(C)[nH]c2c(ccc3ccccc32)c1=O: 4.00

For every item below, please supply its pIC50.
1. COc1cc(NC(=O)Nc2ccc(Br)cc2C(=O)Nc2ccc(Br)cc2)cc(OC)c1OC
2. COc1ccc2ncc(C#N)c(CCN3CCC(NCc4ccc5c(c4)NC(=O)CO5)CC3)c2c1.Cl
3. CCOC(=O)c1c[nH]c2c(ccc3ccccc32)c1=O
4. Cc1[nH]c(C)c(-c2ccc(Oc3ccc(OC(F)(F)F)cc3)cc2)c(=O)c1Br
5. Cc1noc(C)c1-c1cccc(CNCc2ccc(-c3cccc(-c4nc5cc(F)ccc5[nH]4)c3)cc2)c1.O=C(O)C(F)(F)F
6. CCN(CC)c1ccccc1CNC(=O)c1cc(Cl)c(N)cc1OC
7. Cc1nc(C)c(-c2ccc(Oc3ccc(Cl)c(Cl)c3)cc2)c(O)c1Br

1. 4.00
2. 4.41
3. 4.00
4. 4.12
5. 4.81
6. 4.38
7. 4.71

Please state pIC50 for every compound in the list that follows.
1. Cc1[nH]c(C)c(-c2ccc(-c3ccc(C(F)F)cc3)nc2)c(=O)c1Cl
2. Cc1ccccc1Cn1ccc2c3c(N)nc(N)nc3ccc21
3. COc1ccc(-c2nc3c(N)nc(N)nc3nc2-c2ccccc2Cl)cc1.COc1ccc(-c2nc3nc(N)nc(N)c3nc2-c2ccccc2Cl)cc1.Cl
4. COc1ccc2nccc([C@@H](O)CN3CCC(NC(=O)c4cc5c(F)cc(F)cc5[nH]4)CC3)c2n1
5. Br.CC1(C)NC(N)=NC(=N)N1OCCSc1ccccc1
6. Cc1[nH]c(C)c(-c2ccc(OCc3ccc(F)cc3)nc2)c(=O)c1Br

1: 4.00; 2: 8.08; 3: 4.14; 4: 4.98; 5: 9.00; 6: 4.00

Reference for the values: paper PMC6753678
